- Assay target: alkaline phosphatase, placental type (Homo sapiens)
- Protocol notes: PLAP enzyme inhibitors, dose response, selectivity assay for mouse IAP inhibitor project, biochemical, uHTS hits (AID 488879)
- Condition description: purified human placental alkaline phosphatase, enzymatic inhibition
The source made the active and inactive calls. The rule behind the calls is not given here.
Possible outcomes: active, inactive

Compound | Category label
O=C(COC(=O)COc1ccccc1)Nc1ncc([N+](=O)[O-])s1 | inactive
Cc1nonc1C(=O)N/N=C/c1ccc(O)c(O)c1 | active
O=C(NCCCCc1ccccc1)NC[C@@H]1CC[C@@H](Cc2ccc(-c3ccccc3)cc2)O1 | active
CCN(c1ccccc1)S(=O)(=O)c1ccc2[nH]c(=O)[nH]c2c1 | active
CCCn1ncc(CN2CCC(C(=O)Nc3cccc(-c4cccc(F)c4)c3)CC2)c1C | inactive
CC(C)=CCc1c(O)c(CC=C(C)C)c2c(c1O)-c1cc(O)c(O)cc1CC2 | inactive
CN=c1scc(-c2ccco2)n1/N=C/c1ccc(O)c(O)c1 | inactive
O=C1CC(c2ccc(O)c(O)c2)Oc2c1ccc(O)c2O (configuration not stated) | inactive
CC(/C=C/C1(O)C(C)CC(=O)CC1(C)C)OC1OC(CO)C(O)C(O)C1O (configuration not stated) | inactive
FC(F)Sc1ccc(NC(=S)NC(c2ccccc2)c2ccccc2)cc1 | inactive
O=[N+]([O-])c1ccccc1NC(=S)N/N=C/c1ccc(O)c(O)c1 | inactive
O=C1CSC(=S)N1/N=C/c1ccc(O)c(O)c1O | inactive
O=C(NN1C(=O)CSC1=S)C(=O)NN1C(=O)CSC1=S | inactive
Cc1cc(F)ccc1S(=O)(=O)Nc1ccc(O)c(Sc2ncn[nH]2)c1 | active
CCn1c(SCC(=O)c2ccc(O)c(O)c2)nnc1-c1ccccc1OC | inactive
CC(C(=O)O)N1C(=O)/C(=C/C=C/c2ccco2)SC1=S (configuration not stated) | inactive
COC(=O)C/C=N/N=C1/NC(=O)/C(=C/C(=O)O)S1 | active
Cc1ccc(C)c(NS(=O)(=O)c2ccc3[nH]c(=O)oc3c2)c1 | inactive
CCc1cc(Cn2nc(-c3ccccc3)cc2C(=O)NCc2cccc(Br)c2)on1 | inactive
CC(C)(C)c1ccc(O)c(N=Cc2cc3c(cc2[N+](=O)[O-])OCO3)c1 | inactive
COc1cc(NS(=O)(=O)c2ccc(NC(=S)NC(=O)/C=C/c3ccco3)cc2)ncn1 | active
Cc1ccc(/C=C2\SC(=S)N(/N=C/c3cc([N+](=O)[O-])ccc3O)C2=O)o1 | inactive
